RUN_DESCRIPTION: logP by HPLC on reversed-phase columns (EEC Directive 79/831 Annex V.A8)
Type: physicochemical
MEASUREMENT_SETUP: pH 2.7, logP (pH 2.7)
MEASUREMENT_LABEL: chromatographic logP
Write the value as a bare number.

**Query** Any idea what its chromatographic logP is? The compound is CC(=O)c1cccc(Nc2ncc(C(F)(F)F)c(NC3CC3)n2)c1
**Result** 2.72

**Query** # iterate: Clc1cnc(Nc2cccc(C3OCCS3)c2)nc1NC1CC1 (stereo not drawn) [Example 46]
**Result** 2.05

**Query** # iterate: CC(=O)c1cccc(Nc2ncc(Cl)c(NC3CC3)n2)c1
**Result** 1.75

**Query** # iterate: O=Cc1cccc(Nc2ncc(I)c(NC3CC3)n2)c1
**Result** 1.96

**Query** # iterate: O=Cc1cccc(Nc2ncc(Br)c(NC3CC3)n2)c1
**Result** 1.93

**Query** # iterate: O=Cc1cccc(Nc2ncc(Cl)c(NC3CCC3)n2)c1
**Result** 2.16

**Query** # iterate: CCC(=O)c1cccc(Nc2ncc(Cl)c(NC3CC3)n2)c1
**Result** 2.25

**Query** # iterate: CC(C)Nc1nc(Nc2cccc(C=O)c2)ncc1Cl
**Result** 1.86

**Query** # iterate: Clc1cnc(Nc2cccc(C3SCCCS3)c2)nc1NC1CC1 [Example 35]
**Result** 2.44

**Query** # iterate: O=Cc1cccc(Nc2ncc(Cl)c(NCC(F)(F)F)n2)c1
**Result** 2.46

**Query** # iterate: O=Cc1cccc(Nc2ncc(Br)c(NC3CCC3)n2)c1
**Result** 2.35

**Query** # iterate: O=Cc1cccc(Nc2ncc(F)c(NC3CC3)n2)c1
**Result** 1.26

====

RUN_DESCRIPTION: logP by HPLC on reversed-phase columns (EEC Directive 79/831 Annex V.A8)
Assay type: physicochemical
MEASUREMENT_SETUP: pH 7.8
MEASUREMENT_LABEL: log p [c]
Write the value as a bare number.

**Query** Any idea what its log p [c] is? The compound is CCOC(OCC)c1cccc(Nc2ncc(Cl)c(NC3CC3)n2)c1
**Result** 3.86

**Query** # iterate: CC1(C)COC(c2cccc(Nc3ncc(Br)c(NC4CCC4)n3)c2)OC1
**Result** 4.51

**Query** # iterate: CC(C)(C)C1CCOC(c2cccc(Nc3ncc(C(F)(F)F)c(NC4CC4)n3)c2)O1 (stereo not drawn)
**Result** 4.82

**Query** # iterate: FC(F)(F)c1cnc(Nc2cccc(C3OCCO3)c2)nc1NC1CCC1
**Result** 3.57

**Query** # iterate: CCCCOC(OCCCC)c1cccc(Nc2ncc(Cl)c(NC3CC3)n2)c1
**Result** 5.83

**Query** # iterate: COC(OC)c1cccc(Nc2ncc(Cl)c(NC3CC3)n2)c1
**Result** 3.07

**Query** # iterate: Brc1cnc(Nc2cccc(C3OCCO3)c2)nc1NC1CC1
**Result** 2.82

**Query** # iterate: Clc1ccc(Nc2ncc(Cl)c(NC3CC3)n2)cc1C1OCCO1
**Result** 3.28

**Query** # iterate: CC1CC1Nc1nc(Nc2cccc(C3(C)OCCO3)c2)ncc1Cl (stereo not drawn)
**Result** 3.67

====

System: Fusarium proliferatum
RUN_DESCRIPTION: Growth of Fusarium proliferatum (OD620) in the fumonisin test
Format: cell-based
MEASUREMENT_SETUP: Fusarium proliferatum, 144 h, read-out: pI50 growth
Provide the reported pIC50 of each item.
Recall that pIC50 is obtained by taking minus log10 of the concentration measured in molar.

**Query** Query pIC50 on Fusarium proliferatum for CC1(c2cccc(Nc3ncc(Cl)c(NC4CC4)n3)c2)OCCO1
**Result** 5.80

**Query** # iterate: Clc1cnc(Nc2cccc(C3OCCCO3)c2)nc1NC1CC1
**Result** 6.10

**Query** # iterate: CC1(c2ccc(Nc3ncc(Cl)c(NC4CC4)n3)cc2)OCCO1
**Result** 6.00

**Query** # iterate: Clc1cnc(Nc2cccc(C3OCCO3)c2)nc1NC1CC1
**Result** 6.40

====

RUN_DESCRIPTION: logP by HPLC on reversed-phase columns (EEC Directive 79/831 Annex V.A8)
Type: physicochemical
MEASUREMENT_SETUP: pH 7.8
MEASUREMENT_LABEL: log p [c]
Write the value as a bare number.

**Query** Any idea what its log p [c] is? The molecule is CC1(C)COC(c2cccc(Nc3ncc(C(F)(F)F)c(NC4CC4)n3)c2)OC1
**Result** 4.07

**Query** # iterate: CC1CC(C)OC(c2cccc(Nc3ncc(Cl)c(NC4CC4)n3)c2)O1 (centres unmarked)
**Result** 3.51

**Query** # iterate: FC(F)(F)c1cnc(Nc2cccc(C3OC4COCC4O3)c2)nc1NC1CC1 (centres unmarked)
**Result** 2.87

**Query** # iterate: CCCOCC1COC(c2cccc(Nc3ncc(Cl)c(NC4CC4)n3)c2)O1 (centres unmarked)
**Result** 3.79

====

RUN_DESCRIPTION: logP by HPLC on reversed-phase columns (EEC Directive 79/831 Annex V.A8)
Type: physicochemical
MEASUREMENT_SETUP: pH 2.7
MEASUREMENT_LABEL: log p [b]
Write the value as a bare number.

**Query** Any idea what its log p [b] is? The compound is CC1CCOC(c2cccc(Nc3ncc(Cl)c(NC4CC4)n3)c2)O1 (centres unmarked)
**Result** 2

**Query** # iterate: Brc1cnc(Nc2cccc(C3OC4COCC4O3)c2)nc1NC1CCC1 (centres unmarked)
**Result** 1.91

**Query** # iterate: CC1COC(C)(c2cccc(Nc3ncc(C(F)(F)F)c(NC4CC4)n3)c2)O1 (centres unmarked)
**Result** 3.52

**Query** # iterate: CC1(C)CC(C)(C)OC(c2cccc(Nc3ncc(Cl)c(NC4CC4)n3)c2)O1
**Result** 2.86

**Query** # iterate: Brc1cnc(Nc2ccc(C3OCCCO3)cc2)nc1NC1CCC1
**Result** 2.2

**Query** # iterate: COCC1COC(c2cccc(Nc3ncc(C(F)(F)F)c(NC4CCC4)n3)c2)O1 (centres unmarked)
**Result** 3.22

**Query** # iterate: Brc1cnc(Nc2cccc(C3OCC(C4CC4)CO3)c2)nc1NC1CC1 (centres unmarked)
**Result** 2.77

**Query** # iterate: CCOC1COC(c2cccc(Nc3ncc(Cl)c(NC4CC4)n3)c2)OC1 (centres unmarked)
**Result** 2.07

**Query** # iterate: CC1CC(C)OC(c2cccc(Nc3ncc(Cl)c(NC4CC4)n3)c2)O1 (centres unmarked)
**Result** 2.26

**Query** # iterate: FC(F)(F)c1cnc(Nc2cccc(C3OC4COCC4O3)c2)nc1NC1CCC1 (centres unmarked)
**Result** 2.79

**Query** # iterate: CCC1COC(c2cccc(Nc3ncc(Br)c(NC4CCC4)n3)c2)O1 (centres unmarked)
**Result** 2.88

**Query** # iterate: CCC1COC(c2cccc(Nc3ncc(C(F)(F)F)c(NC4CCC4)n3)c2)O1 (centres unmarked)
**Result** 4.06

**Query** # iterate: C=CCOCC1COC(c2cccc(Nc3ncc(C(F)(F)F)c(NC4CCC4)n3)c2)O1 (centres unmarked)
**Result** 3.84

**Query** # iterate: C=CCOCC1COC(c2cccc(Nc3ncc(Br)c(NC4CC4)n3)c2)O1 (centres unmarked)
**Result** 2.43

**Query** # iterate: CC(C)(C)C1CCOC(c2cccc(Nc3ncc(C(F)(F)F)c(NC4CC4)n3)c2)O1 (centres unmarked)
**Result** 4.44

**Query** # iterate: C=C1COC(c2cccc(Nc3ncc(Br)c(NC4CCC4)n3)c2)OC1
**Result** 2.43

**Query** # iterate: Clc1cnc(Nc2cccc(C3OCC(C4CC4)CO3)c2)nc1NC1CCC1 (centres unmarked)
**Result** 2.93

**Query** # iterate: CC1(c2cccc(Nc3ncc(C(F)(F)F)c(NC4CC4)n3)c2)OCCO1
**Result** 3.03

====

RUN_DESCRIPTION: logP by HPLC on reversed-phase columns (EEC Directive 79/831 Annex V.A8)
Format: physicochemical
MEASUREMENT_SETUP: pH 7.8
MEASUREMENT_LABEL: log p
Write the value as a bare number.

**Query** Any idea what its log p is? The compound is CC1(C)OC(c2cccc(Nc3ncc(Cl)c(NC4CC4)n3)c2)OC1(C)C [Example 158]
**Result** 4.13

**Query** # iterate: OCC1CSC(c2cccc(Nc3ncc(Br)c(NC4CCC4)n3)c2)S1 (stereo not drawn) [Example 164]
**Result** 3.28

**Query** # iterate: CC(C)Nc1nc(Nc2cccc(C3OCCCO3)c2)ncc1Cl [Example 149]
**Result** 3.2

**Query** # iterate: CC1CC1Nc1nc(Nc2cccc(C3OCCCO3)c2)ncc1Br (stereo not drawn) [Example 133]
**Result** 3.53

**Query** # iterate: CC1CSC(c2cccc(Nc3ncc(Br)c(NC4CCC4)n3)c2)S1 (stereo not drawn) [Example 165]
**Result** 4.92

**Query** # iterate: Fc1ccc(Nc2ncc(Cl)c(NC3CC3)n2)cc1C1OCCCO1 [Example 144]
**Result** 3.02

**Query** # iterate: Fc1ccc(Nc2ncc(C(F)(F)F)c(NC3CC3)n2)cc1C1OCCCO1 [Example 147]
**Result** 3.40

**Query** # iterate: CC1CCC2OC(c3cccc(Nc4ncc(Cl)c(NC5CC5)n4)c3)OC12 (stereo not drawn) [Example 157]
**Result** 4.1

**Query** # iterate: Fc1ccc(Nc2ncc(Br)c(NC3CC3)n2)cc1C1OCCO1 [Example 141]
**Result** 2.98
